Tested on: NCI-H460
Test: NCI tumour cell line growth inhibition, 48 h
Active and inactive are the calls of the source. No stated cut-off is given here; in the data, active = GI50 up to about 1.1 µM and inactive = higher.
Respond only with the outcome that fits, drawn from true = active, false = inactive

Which result was noted for this compound in the test: O=C1NC(c2cccc3ccccc23)Nc2ccc(O)cc21 (configuration not stated)
false

Which result was noted for this compound in the test: CCC12C=CCN3CCC4(C(=C(C(=O)OC)C1)Nc1ccccc14)[C@H]32 (some centres not stated)
false

Which result was noted for this compound in the test: CC1CNC(c2ccc(-c3nc(-c4ccc(C5=NC(C)CN5)cc4)nc(N(C)C)n3)cc2)=N1 (configuration not stated)
false

Which result was noted for this compound in the test: "C=Cc1c(C)c(OC)cc2c1Oc1ccc(OC)c(C)c1CC2"
false

Which result was noted for this compound in the test: COc1cccc2c1C(=O)c1c(O)c3c(c(O)c1C2=O)C[C@@](O)(C(C)=O)C[C@@H]3OC1CC(N(Cc2ccccc2)Cc2ccccc2)C(O)C(C)O1 (some centres not stated)
true

Which result was noted for this compound in the test: "COc1cc(C(=O)N(C)N(C)C)cc(OC)c1OC"
false

Which result was noted for this compound in the test: "Nc1ncnc2c1ncn2C=C=CCO"
false

Provenance of the data: ChEMBL document CHEMBL1201862
